Every entry's value here was drawn from patent US20240076343A1.

molecular target: T1, recombinant His-tagged cynomolgus PD-1 (Acro Biosystems) (cynomolgus, UniProt B0LAJ3 25-170); test: SPR Carterra LSA;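 note: antibodies or fusion proteins amine-coupled on an HC30M chip, soluble His-tagged human or cynomolgus PD-1 titrated over them, non-regenerative kinetics, constants fitted from titration curves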
T1 construct: His-tagged; also called Cyno PD-1; not shown: His tag (and any linker) of the Acro Biosystems product
T1 sequence (B0LAJ3 entry or part of it limits assumed): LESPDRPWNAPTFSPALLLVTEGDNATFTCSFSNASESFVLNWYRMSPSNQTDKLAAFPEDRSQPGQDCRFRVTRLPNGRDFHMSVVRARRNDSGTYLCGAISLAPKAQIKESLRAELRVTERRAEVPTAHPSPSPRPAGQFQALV
result type: koff (s⁻¹)
Numbers only, in s⁻¹.

binder: OMC.2.C6-hIgG4 (antibody, V domains shown) VH: EVQLLESGGGLVQPGGSLRLSCTASGFTFSSYEMQWVRQAPGKGLEWVLGITSSSSHIFYADSVKGRFTVSRDNSKNTLYLQMNSLRAEDTAVYYCTKDLNSYYGLDVWGQGTTVTVSS VL: QSVMTQPPSASGTPGQRVTISCSGSTSNLGNNYVSWYQHLPGTAPKLLIYGNDQRPSGVPDRFSGSKSGTSASLAISGLQSDDEADYYCSSWDASLNVWVFGGGTKLTVLG
koff [s⁻¹]: 0.00074
//
binder: OMC476pE4-hIgG4 (antibody, V domains shown) VH: DVQLVESGGGVVRPGESLRLSCAASGFTFSTDAMGWVRQAPGEGLEWVSLISGSGYSTYYADSVKGRFTISRDNSKNTLYLQMNSLTAEDTAVYYCAKNSLAFFDYWGLGTLVTVSS VL: QSVLTQPPSASGTPGQRVTISCSGGSSNIGRESVNWYQQLPGTAPKLLIYSTDRRPSGVPDRFSGSKSGTSASLAISGLQSEDEADYYCGTWDNDLNGWVFGGGTKLTVLG
koff [s⁻¹]: 0.035

Attention now turns to another entry.
Query: Specify koff for OMC.1.B6-hIgG4 (antibody, V domains shown) VH: EVQLLESGGGLVQPGGSLRLSCAASGFTFSSNYMSWVRQAPGKGLEWVSAISSSGGTIFYADSVKGRFTISRDNSKNTLYLQMNSLRAEDTAVYYCAKHKWNAVYYDGMDVWGQGTTVTVSS VL: QSVLTQPPSASGTPGQRVTISCSGSNSNIGRNLVNWYQQLPGTAPKLLIYTIDQRPSGVPDRFSGSKSGTSASLVISGLQSEDEADYYCAAWDGSLNAWVFGGGTKLTVLG and stop.
Result: 0.0044
